FYI, the data here is from patent US5741781A.

Examples of molecules with documented IC50 follow.
- system: peptidyldipeptidase A (ACE) (Homo sapiens)
- Sequence (P12821 30-1306, species assumed): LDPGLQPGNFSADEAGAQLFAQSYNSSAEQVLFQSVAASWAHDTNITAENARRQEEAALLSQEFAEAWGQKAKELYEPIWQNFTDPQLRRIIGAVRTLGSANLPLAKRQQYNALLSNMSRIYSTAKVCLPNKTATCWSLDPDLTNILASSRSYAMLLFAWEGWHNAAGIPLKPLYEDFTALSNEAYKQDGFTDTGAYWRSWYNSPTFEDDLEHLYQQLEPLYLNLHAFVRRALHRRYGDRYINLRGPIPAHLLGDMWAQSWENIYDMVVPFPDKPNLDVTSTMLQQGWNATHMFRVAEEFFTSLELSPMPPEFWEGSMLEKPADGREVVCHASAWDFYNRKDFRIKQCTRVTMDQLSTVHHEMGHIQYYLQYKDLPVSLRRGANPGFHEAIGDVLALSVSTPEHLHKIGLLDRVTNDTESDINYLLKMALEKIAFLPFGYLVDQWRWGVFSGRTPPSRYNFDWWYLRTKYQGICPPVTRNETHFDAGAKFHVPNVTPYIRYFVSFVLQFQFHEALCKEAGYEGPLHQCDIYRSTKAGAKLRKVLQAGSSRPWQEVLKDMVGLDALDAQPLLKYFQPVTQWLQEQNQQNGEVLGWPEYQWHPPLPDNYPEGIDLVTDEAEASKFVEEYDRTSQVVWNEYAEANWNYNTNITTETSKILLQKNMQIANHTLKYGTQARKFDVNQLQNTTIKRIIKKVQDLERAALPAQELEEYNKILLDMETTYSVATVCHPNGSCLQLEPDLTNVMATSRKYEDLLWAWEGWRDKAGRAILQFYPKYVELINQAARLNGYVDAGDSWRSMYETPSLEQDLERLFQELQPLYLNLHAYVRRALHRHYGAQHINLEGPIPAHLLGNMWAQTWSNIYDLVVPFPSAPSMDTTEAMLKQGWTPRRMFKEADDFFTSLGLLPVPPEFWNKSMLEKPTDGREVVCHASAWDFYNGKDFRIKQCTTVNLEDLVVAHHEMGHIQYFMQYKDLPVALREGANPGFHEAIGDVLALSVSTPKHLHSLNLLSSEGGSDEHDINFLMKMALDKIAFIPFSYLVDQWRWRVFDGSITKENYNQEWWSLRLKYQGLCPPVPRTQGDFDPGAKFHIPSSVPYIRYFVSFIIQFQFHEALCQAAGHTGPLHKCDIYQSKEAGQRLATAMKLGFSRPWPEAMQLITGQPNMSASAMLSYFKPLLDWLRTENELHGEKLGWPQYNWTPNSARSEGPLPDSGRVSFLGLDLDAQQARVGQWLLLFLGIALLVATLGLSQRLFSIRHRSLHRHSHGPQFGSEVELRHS
- test.method.notes: Inhibitory effect in vitro on peptidyldipeptidase A, Z-Phe-His-Leu as substrate
- Format: biochemical

COc1ccc(CC(S)C(=O)NCC(=O)N2C(c3ccccc3O)CC[C@H]2C(=O)O)cc1 (some centres unmarked) [Example 26]	0.4 nM
O=C(NCC(=O)N1C(c2ccc(O)cc2)CC[C@H]1C(=O)O)C(S)Cc1ccc(O)cc1 (some centres unmarked) [Example 22]	0.45 nM

Give recorded IC50 with peptidyldipeptidase A (ACE) (Homo sapiens) for the following molecule: O=C(NCC(=O)N1C(c2cccc(O)c2)CC[C@H]1C(=O)O)C(S)Cc1ccccc1 (some centres unmarked) [Example 20]
1.4 nM

Give recorded IC50 with peptidyldipeptidase A (ACE) (Homo sapiens) for the following molecule: O=C(NCC(=O)N1C(c2ccccc2O)CC[C@H]1C(=O)O)C(S)Cc1ccccc1 (some centres unmarked) [Example 5]
0.5 nM

Give recorded IC50 with peptidyldipeptidase A (ACE) (Homo sapiens) for the following molecule: COc1ccc(CC(S)C(=O)NCC(=O)N2C(c3ccccc3OC)CC[C@H]2C(=O)O)cc1 (some centres unmarked) [Example 28]
2.2 nM

Give recorded IC50 with peptidyldipeptidase A (ACE) (Homo sapiens) for the following molecule: O=C(NCC(=O)N1C(c2ccccc2)CC[C@H]1C(=O)O)C(S)Cc1ccc(O)cc1 (some centres unmarked) [Example 10]
4.2 nM

Give recorded IC50 with peptidyldipeptidase A (ACE) (Homo sapiens) for the following molecule: Cc1ccccc1C1CC[C@@H](C(=O)O)N1C(=O)CNC(=O)C(S)Cc1ccc(O)cc1 (some centres unmarked) [Example 34]
5.2 nM

Give recorded IC50 with peptidyldipeptidase A (ACE) (Homo sapiens) for the following molecule: O=C(NCC(=O)N1C(c2ccccc2O)CC[C@H]1C(=O)O)C(S)Cc1ccc(Cl)cc1 (some centres unmarked) [Example 24]
0.9 nM
